Cited source: ChEMBL document CHEMBL1133101

Target: D(1A) dopamine receptor (Rattus norvegicus, UniProt P18901)
Sequence (P18901 whole entry): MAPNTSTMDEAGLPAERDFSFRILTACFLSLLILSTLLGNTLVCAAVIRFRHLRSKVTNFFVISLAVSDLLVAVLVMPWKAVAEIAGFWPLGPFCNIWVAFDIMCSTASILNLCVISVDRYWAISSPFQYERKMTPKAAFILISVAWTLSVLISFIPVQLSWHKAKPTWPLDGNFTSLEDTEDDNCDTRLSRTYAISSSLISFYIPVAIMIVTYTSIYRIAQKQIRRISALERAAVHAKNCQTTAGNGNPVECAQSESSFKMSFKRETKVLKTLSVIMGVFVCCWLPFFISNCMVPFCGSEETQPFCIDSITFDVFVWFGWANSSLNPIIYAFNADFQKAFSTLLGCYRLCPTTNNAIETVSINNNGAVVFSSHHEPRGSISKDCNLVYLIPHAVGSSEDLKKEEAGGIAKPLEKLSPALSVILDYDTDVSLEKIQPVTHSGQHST
Experiment: Binding affinity against Dopamine receptor D1 of rat striatal receptor using [3H]SCH-23390
pKi: −log10 of the molar value.
Reported Property: pKi

> print(dat)
                                test.smiles  test.result
1         CN1CCc2ccccc2Cc2[nH]c3ccccc3c2CC1        10.10
2  CN1CCc2c([nH]c3ccccc23)Cc2[nH]c3ccccc3c2CC1         8.02
3  COc1cc2c(cc1OC)Cc1[nH]c3ccccc3c1CCN(C)CC2         7.04

---

Biological target: Glutamate receptor ionotropic AMPA (Homo sapiens) (UniProt P48058+P42263+P42262+P42261)
Assay: Percent decrease of Quisqualate receptor binding using AMPA
Assay type: protein-complex assay
Design: scale not given: the % may be the effect or the level left
Reported Property: Activity (%)

> print(dat)
                                   molecule  test.result
1  c1ccc2c(c1)CCN1CCc3c([nH]c4ccccc34)C21 (centres undefined)            3
2  COc1cc2c(cc1OC)C1c3[nH]c4ccccc4c3CCN1CC2 (centres undefined)           -1
3  C[N+]12CCc3c([nH]c4ccccc34)C1c1[nH]c3ccccc3c1CC2 (centres undefined)           11
4  c1ccc2c3c([nH]c2c1)C1c2[nH]c4ccccc4c2CCN1CC3           -1
